System: Moraxella catarrhalis
Assay: In vitro antibacterial activity against Moraxella catarrhalis strains 30607 and 30603 (MC).
Assay type: functional
Recorded measurements of MIC, one per entry

# example entries with known answers
INSERT INTO measurements (structure_as_smiles, experimental_target, measured_parameter, val) VALUES
  ('CC(C)CCC(=O)NC[C@H]1CN(c2ccc(N3CC[S+]([O-])CC3)c(F)c2)C(=O)O1', 'Moraxella catarrhalis', 'MIC', '> 64 µg/mL'),
  ('O=C(CF)NC[C@H]1CN(c2ccc(C3CCS(=O)(=O)CC3)c(F)c2)C(=O)O1', 'Moraxella catarrhalis', 'MIC', '> 8 µg/mL');

Please find the next molecule below.
State, in one line, measured MIC of COc1ccc(/C=C/C(=O)NC[C@H]2CN(c3ccc(N4CC[S+]([O-])CC4)c(F)c3)C(=O)O2)cc1 > 64 µg/mL

###

Recorded measurements of MIC, one per entry
System: Staphylococcus aureus
Test: In vitro antibacterial activity against linezolid-resistant Staphylococcus aureus ATCC 29213 (LRSA).
Type: functional

# example entries with known answers
INSERT INTO measurements (compound, val) VALUES
  ('NCCC(O)C(=O)NC[C@H]1CN(c2ccc(C3CCS(=O)(=O)CC3)c(F)c2)C(=O)O1 (some centres not stated)', '> 64 µg/mL'),
  ('COCC(=O)NC[C@H]1CN(c2ccc(N3CC[S+]([O-])CC3)c(F)c2)C(=O)O1', '> 64 µg/mL'),
  ('O=C(NC[C@H]1CN(c2ccc(N3CC[S+]([O-])CC3)c(F)c2)C(=O)O1)c1ccccc1', '> 64 µg/mL');

State, in one line, measured MIC of COc1ccc(/C=C/C(=O)NC[C@H]2CN(c3ccc(N4CC[S+]([O-])CC4)c(F)c3)C(=O)O2)cc1 > 64 µg/mL

State, in one line, measured MIC of O=C(/C=C/c1ccc(O)cc1)NC[C@H]1CN(c2ccc(C3CC[S+]([O-])CC3)c(F)c2)C(=O)O1 (some centres not stated) > 64 µg/mL

State, in one line, measured MIC of CC(C)CCC(=O)NC[C@H]1CN(c2ccc(N3CC[S+]([O-])CC3)c(F)c2)C(=O)O1 > 64 µg/mL

State, in one line, measured MIC of CC(=O)Nc1ccc(/C=C/C(=O)NC[C@H]2CN(c3ccc(N4CC[S+]([O-])CC4)c(F)c3)C(=O)O2)cc1 > 64 µg/mL

State, in one line, measured MIC of O=C(CC(F)(F)F)NC[C@H]1CN(c2ccc(N3CCS(=O)(=O)CC3)c(F)c2)C(=O)O1 > 64 µg/mL

State, in one line, measured MIC of NC(=O)NC[C@H]1CN(c2ccc(C3CCS(=O)(=O)CC3)c(F)c2)C(=O)O1 > 64 µg/mL

State, in one line, measured MIC of O=C(NC[C@H]1CN(c2ccc(N3CC[S+]([O-])CC3)c(F)c2)C(=O)O1)c1csnn1 > 64 µg/mL

State, in one line, measured MIC of CC(=O)NC[C@H]1CN(c2ccc(N3CC[S+]([O-])CC3)c(F)c2)C(=O)O1 > 64 µg/mL

State, in one line, measured MIC of O=C1O[C@@H](CNC(=O)C(F)(F)F)CN1c1ccc(N2CC[S+]([O-])CC2)c(F)c1 > 64 µg/mL

State, in one line, measured MIC of CSCC(=O)NC[C@H]1CN(c2ccc(C3CCS(=O)(=O)CC3)c(F)c2)C(=O)O1 64 µg/mL

State, in one line, measured MIC of COc1ccc(OC)c(C(=O)NC[C@H]2CN(c3ccc(N4CC[S+]([O-])CC4)c(F)c3)C(=O)O2)c1 > 64 µg/mL

State, in one line, measured MIC of O=C(/C=C/c1ccc(F)cc1)NC[C@H]1CN(c2ccc(N3CC[S+]([O-])CC3)c(F)c2)C(=O)O1 32 µg/mL

State, in one line, measured MIC of O=C(CO)NC[C@H]1CN(c2ccc(C3CC[S+]([O-])CC3)c(F)c2)C(=O)O1 (some centres not stated) 64 µg/mL

State, in one line, measured MIC of O=C(CF)NC[C@H]1CN(c2ccc(C3CC[S+]([O-])CC3)c(F)c2)C(=O)O1 (some centres not stated) 32 µg/mL
